# assay: Plasma nutrikinetics of flavanol metabolites after a single serving of soluble cocoa product (HPLC-ESI-QToF-MS)
# Type: in vivo, human
# assay-setup: both sexes, oral; human plasma, after CC-PP (25 g in 200 mL semi-skimmed milk, 68.25 mg flavanols), mean ± SD, n = 13; read-out: Cmax
Assign y whenever Cmax does not fall below 40 nM; assign n whenever it does.

Assess whether reported Cmax for O=C1CCC(Cc2ccc(O)c(OC3OC(C(=O)O)C(O)C(O)C3O)c2)O1 (stereo not shown) [HPVL-3′-glucuronide] sits at 40 nM or higher. y

Assess whether reported Cmax for O=S(=O)(O)Oc1cc([C@H]2Oc3cc(O)cc(O)c3C[C@H]2O)ccc1O [Epicatechin-3′-sulfate] sits at 40 nM or higher. y

Assess whether reported Cmax for O=C1CCC(Cc2ccc(O)c(O)c2)O1 (stereo not shown) [DHPVL] sits at 40 nM or higher. n

Assess whether reported Cmax for O=C(O)C1OC(Oc2cc(C3Oc4cc(O)cc(O)c4CC3O)ccc2O)C(O)C(O)C1O (stereo not shown) [Epicatechin-3′-glucuronide] sits at 40 nM or higher. n

====

# assay: Urinary excretion of flavanol metabolites (0-24 h) after a single serving of soluble cocoa product (HPLC-ESI-QToF-MS)
# Assay type: in vivo, human
# assay-setup: CC-PP intervention, basal urine (−2–0 h, before intake), mean ± SD, n = 13
property: Excreted in urine, Basal (µmol)
Note: unit µmol is implicit; provide only the numeric part.

Solved entries (count: 3):
O=C(O)c1ccc(O)c(O)c1 [Protocatechuic acid, 3,4-Dihydroxybenzoic acid]	0.088
O=C(O)CCc1ccc(O)c(O)c1 [3,4-Dihydroxyphenylpropionic acid]	0.213
COc1cc(CC(=O)O)ccc1O [3-Methoxy-4-hydroxyphenylacetic acid]	0.198

GET /value?item= O=C(O)Cc1cccc(O)c1 [Hydroxyphenylacetic acid, 3-Hydroxyphenylacetic acid] &field=Excreted in urine, Basal returns 0.585

GET /value?item= O=C(O)Cc1ccc(O)c(O)c1 [3,4-Dihydroxyphenylacetic acid] &field=Excreted in urine, Basal returns 0.109

GET /value?item= O=C(O)CCc1ccc(O)cc1 [Hydroxyphenylpropionic acid] &field=Excreted in urine, Basal returns 0.074

GET /value?item= COc1cc(CCC(=O)O)ccc1O [3-Methoxy-4-hydroxyphenylpropionic acid] &field=Excreted in urine, Basal returns 0.077

====

# assay: Urinary excretion of flavanol metabolites (0-24 h) after a single serving of soluble cocoa product (HPLC-ESI-QToF-MS)
# Assay type: in vivo, human
# assay-setup: after CC (19.80 mg flavanols), mean ± SD, n = 13
property: Excreted in urine, 8–12 h (µmol)
Note: unit µmol is implicit; provide only the numeric part.

O=S(=O)(O)Oc1cc([C@H]2Oc3cc(O)cc(O)c3C[C@H]2O)ccc1O [Epicatechin-3′-sulfate]	0.076
O=C1CCC(Cc2cccc(OS(=O)(=O)O)c2)O1 (stereo not drawn) [PVL-3′-sulfate, 5-Phenyl-γ-valerolactone-3′-sulfate]	0.456
COc1ccc(/C=C/C(=O)O)cc1O	0.088
O=C(O)c1ccc(O)c(O)c1 [Protocatechuic acid, 3,4-Dihydroxybenzoic acid]	0.094

GET /value?item= O=C1CCC(Cc2ccc(O)c(OC3OC(C(=O)O)C(O)C(O)C3O)c2)O1 (stereo not drawn) [HPVL-3′-glucuronide] &field=Excreted in urine, 8–12 h returns 0.103

GET /value?item= O=C(O)CCc1ccc(O)c(O)c1 [3,4-Dihydroxyphenylpropionic acid] &field=Excreted in urine, 8–12 h returns 0.074

GET /value?item= COc1cc([C@H]2Oc3cc(O)cc(OS(=O)(=O)O)c3C[C@H]2O)ccc1O (single isomer, unassigned) [Epicatechin-methoxy-sulfate (isomer 1), Epicatechin-methoxy-sulfate] &field=Excreted in urine, 8–12 h returns 0.154

GET /value?item= O=C1CCC(Cc2cccc(OC3OC(C(=O)O)C(O)C(O)C3O)c2)O1 (stereo not drawn) [PVL-3′glucuronide, 5-Phenyl-γ-valerolactone-3′-glucuronide] &field=Excreted in urine, 8–12 h returns 0.126

GET /value?item= O=C(O)Cc1cccc(O)c1 [Hydroxyphenylacetic acid, 3-Hydroxyphenylacetic acid] &field=Excreted in urine, 8–12 h returns 0.225

====

Recorded Excreted in urine, Basal, one value per entry.
# assay: Urinary excretion of flavanol metabolites (0-24 h) after a single serving of soluble cocoa product (HPLC-ESI-QToF-MS)
# Type: in vivo, human
# assay-setup: CC intervention, basal urine (−2–0 h, before intake), mean ± SD, n = 13
Note: unit µmol is implicit; provide only the numeric part.

COc1ccc(/C=C/C(=O)O)cc1O [Isoferulic acid]	0.170

Now consider the entry below.
GET /value?item= O=C(O)Cc1cccc(O)c1 [Hydroxyphenylacetic acid, 3-Hydroxyphenylacetic acid] &field=Excreted in urine, Basal returns 0.369

====

# assay: Urinary excretion of flavanol metabolites (0-24 h) after a single serving of soluble cocoa product (HPLC-ESI-QToF-MS)
# Format: in vivo, human
# assay-setup: after CC (19.80 mg flavanols), mean ± SD, n = 13
property: Excreted in urine, 12–24 h

O=C1CCC(Cc2ccc(O)c(OC3OC(C(=O)O)C(O)C(O)C3O)c2)O1 (stereo not drawn) [HPVL-3′-glucuronide]	<L.Q.
O=C(O)CCC(O)Cc1ccc(O)c(O)c1 (stereo not drawn) [HDHPVA]	<L.Q.
O=C1CCC(Cc2ccc(O[C@@H]3O[C@H](C(=O)O)[C@@H](O)[C@H](O)[C@H]3O)c(O)c2)O1 (stereo partly drawn) [HPVL-4′-glucuronide]	<L.Q.

====

# assay: Urinary excretion of flavanol metabolites (0-24 h) after a single serving of soluble cocoa product (HPLC-ESI-QToF-MS)
# Type: in vivo, human
# assay-setup: after CC-PP (68.25 mg flavanols), mean ± SD, n = 13
property: Excreted in urine, 8–12 h

Solved entries (count: 5):
O=C(O)C1OC(Oc2cc(C3Oc4cc(O)cc(O)c4CC3O)ccc2O)C(O)C(O)C1O (stereo not drawn) [Epicatechin-3′-glucuronide]	<L.Q.
COc1cc(CCC(=O)O)ccc1O [3-Methoxy-4-hydroxyphenylpropionic acid]	<L.Q.
COc1ccc([C@H]2Oc3cc(O)cc(OS(=O)(=O)O)c3C[C@H]2O)cc1O (single isomer, unassigned) [Epicatechin-methoxy-sulfate (isomer 3), Epicatechin-methoxy-sulfate]	<L.Q.
O=C(O)CCC(O)Cc1ccc(O)c(O)c1 (stereo not drawn)	<L.Q.
COc1cc(CC(=O)O)ccc1O [3-Methoxy-4-hydroxyphenylacetic acid]	<L.Q.

Now consider the entry below.
GET /value?item= O=C1CCC(Cc2cccc(O)c2)O1 (stereo not drawn) [HPVL, 5-(3′-Hydroxyphenyl)-γ-valerolactone] &field=Excreted in urine, 8–12 h returns <L.Q.

====

Recorded Cmax, one value per entry.
# assay: Plasma nutrikinetics of flavanol metabolites after a single serving of soluble cocoa product (HPLC-ESI-QToF-MS)
# Assay type: in vivo, human
# assay-setup: both sexes, oral; human plasma, after CC-PP (25 g in 200 mL semi-skimmed milk, 68.25 mg flavanols), mean ± SD, n = 13; read-out: Cmax
Note: unit nM is implicit; provide only the numeric part.

COc1cc([C@H]2Oc3cc(OS(=O)(=O)O)cc(O)c3C[C@H]2O)ccc1O (single isomer, unassigned) [Epicatechin-methoxy-sulfate (isomer 2), Epicatechin-methoxy-sulfate]	41
COc1cc([C@H]2Oc3cc(O)cc(OS(=O)(=O)O)c3C[C@H]2O)ccc1O (single isomer, unassigned) [Epicatechin-methoxy-sulfate (isomer 1), Epicatechin-methoxy-sulfate]	41

Now consider the entry below.
GET /value?item= O=C1CCC(Cc2cccc(OS(=O)(=O)O)c2)O1 (stereo not drawn) [PVL-3′-sulfate, 5-Phenyl-γ-valerolactone-3′-sulfate] &field=Cmax returns 39

Data provenance: paper PMC6683251
